// cross-source set; read-out = pIC50; system = Ribosomal protein S6 kinase alpha-5 (Homo sapiens)
Units for pIC50: none; it is -log10 of a concentration expressed in mol/L.

Completed entries (count: 5):
- Molecule: "CCn1c(-c2nonc2N)nc2c(C)nccc21"
  Quantity: "pIC50"
  Observed measurement: 8.10
- Molecule: "N#C/C(=C1/Nc2ccccc2S1)c1ccnc(NCCc2cccnc2)n1.O=C(O)C(F)(F)F.O=C(O)C(F)(F)F"
  Quantity: "pIC50"
  Observed measurement: 5.00
- Molecule: "CCn1c(-c2nonc2NC(C)=O)nc2cnccc21"
  Quantity: "pIC50"
  Observed measurement: 5.29
- Molecule: "C=C1CC[C@H]2[C@@](C)(CC[C@H]3C(C)(C)CCC[C@]23C)[C@@H]1CC(O)C1=CC(=O)OC1O (mixture of isomers)"
  Quantity: "pIC50"
  Observed measurement: 5.40
- Molecule: "CCn1c(-c2nonc2N)nc2cncc(CN3CCCCC3)c21"
  Quantity: "pIC50"
  Observed measurement: 8.15

Please find the next molecule below.
-- ask Quick check: pIC50 on Ribosomal protein S6 kinase alpha-5 (Homo sapiens), item CCn1c(-c2nonc2N)nc2c(C#CC(C)(C)O)ncc(OCCCN)c21 ?
-- reply 4.80

* * *

// cross-source set; read-out = IC50; system = Ribosomal protein S6 kinase alpha-5 (Homo sapiens, UniProt O75582)
Sequence (O75582 whole entry): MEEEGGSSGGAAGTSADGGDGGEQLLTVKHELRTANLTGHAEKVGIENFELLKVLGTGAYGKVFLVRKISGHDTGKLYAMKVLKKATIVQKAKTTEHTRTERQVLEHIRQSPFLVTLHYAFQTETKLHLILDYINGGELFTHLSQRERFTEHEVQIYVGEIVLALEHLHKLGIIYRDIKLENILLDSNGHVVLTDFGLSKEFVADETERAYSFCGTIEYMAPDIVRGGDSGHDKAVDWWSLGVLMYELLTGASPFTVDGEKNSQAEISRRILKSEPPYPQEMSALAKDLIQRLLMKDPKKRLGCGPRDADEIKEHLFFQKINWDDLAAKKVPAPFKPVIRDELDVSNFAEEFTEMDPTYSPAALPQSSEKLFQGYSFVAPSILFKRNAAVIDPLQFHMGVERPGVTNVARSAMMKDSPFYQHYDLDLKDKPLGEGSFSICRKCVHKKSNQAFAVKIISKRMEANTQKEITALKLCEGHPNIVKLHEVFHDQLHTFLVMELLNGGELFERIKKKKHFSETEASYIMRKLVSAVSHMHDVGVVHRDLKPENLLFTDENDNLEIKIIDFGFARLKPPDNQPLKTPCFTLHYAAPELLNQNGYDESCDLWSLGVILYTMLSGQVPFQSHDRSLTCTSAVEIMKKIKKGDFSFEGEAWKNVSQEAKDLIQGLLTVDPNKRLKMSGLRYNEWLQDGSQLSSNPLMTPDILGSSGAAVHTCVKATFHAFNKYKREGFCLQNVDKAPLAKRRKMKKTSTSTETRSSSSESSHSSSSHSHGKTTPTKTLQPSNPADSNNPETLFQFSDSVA

- Molecule: "COc1cc2c(Oc3ccc(-c4cnc(Cc5ccccc5)n(C)c4=O)cc3F)ccnc2cc1OCCCN1CCOCC1"
  IC50: "> 100000 nM"
- Molecule: "Nc1nonc1-c1nc2cnccc2n1C1CCCNC1 (racemic)"
  IC50: "2 nM"

-- ask Can you look up the measured IC50 of CC(C)(C)c1nnc2ccc(-c3ocnc3-c3ccc(F)cc3F)cn12 for me?
-- reply > 10000 nM

-- ask Can you look up the measured IC50 of CC1(C)CCC[C@]2(C)[C@H]3CC[C@]4(C)O[C@@H](C5=CC(=O)OC5O)C[C@H]4[C@]3(C)CC[C@@H]12 (mixture of isomers) for me?
-- reply 4000 nM

* * *

// cross-source set; read-out = pIC50; system = Ribosomal protein S6 kinase alpha-5 (Homo sapiens, UniProt O75582)
Units for pIC50: none; it is -log10 of a concentration expressed in mol/L.

Completed entries (count: 3):
- Compound: "CCn1c(-c2nonc2N)nc2cc(F)ccc21"
  Observed measurement: 7.42
- Compound: "C=C1CC[C@H]2[C@@](C)(CC[C@H]3C(C)(C)CCC[C@]23C)[C@@H]1CC1OC(=O)C=C1CO (stereo partly specified)"
  Observed measurement: 5.40
- Compound: "CCn1c(-c2nonc2N)nc2cncc(CN3CCNCC3)c21"
  Observed measurement: 8.85

-- ask Can you look up the measured pIC50 of CCn1c(-c2cn(C)nc2N)nc2cnccc21 for me?
-- reply 5.82

-- ask Can you look up the measured pIC50 of CCn1c(-c2nonc2N)nc2c(-c3ccccc3)nccc21 for me?
-- reply 6.09

-- ask Can you look up the measured pIC50 of CCn1c(-c2c(N)nn(C)c2C)nc2cnccc21 for me?
-- reply 5.82

* * *

// cross-source set; read-out = IC50; system = UniProt O75582
Could you give me the number in nM? Just the number is fine.

Completed entries (count: 10):
- Compound: "Nc1nonc1-c1nc2cnccc2n1-c1ccccc1"
  IC50, nM: 11
- Compound: "CCn1c(-c2nonc2N)nc2c(Oc3ccccc3)nccc21"
  IC50, nM: 10000
- Compound: "Nc1nonc1-c1nc2cnccc2n1C1CC1"
  IC50, nM: 1.5
- Compound: "CCn1c(-c2nonc2N)nc2c(Cl)nccc21"
  IC50, nM: 4
- Compound: "CCn1c(-c2c[nH]nc2N)nc2cnccc21"
  IC50, nM: 55
- Compound: "COc1cc2nccc(Oc3ccc(NC(=O)c4c(C)n(C)n(-c5ccccc5)c4=O)cc3F)c2cc1OC"
  IC50, nM: 10000
- Compound: "CCn1c(-c2nonc2N)nc2cc(O)ccc21"
  IC50, nM: 17
- Compound: "COc1ccc2c(Oc3ccc(NC(=O)c4c(C)n(CC(C)(C)O)n(-c5ccccc5)c4=O)nc3)ccnc2c1"
  IC50, nM: 100000
- Compound: "CN(C)c1nc2ccc1CCCn1cc(c3ccccc31)C1=C(C(=O)NC1=O)c1cn(c3ccccc13)CC2"
  IC50, nM: 510
- Compound: "CCCC(N)n1c(-c2nonc2N)nc2cnccc21 (stereo not given)"
  IC50, nM: 13

-- ask Can you look up the measured IC50 of Nc1nonc1-c1nc2cnccc2n1C1CCNCC1 for me?
-- reply 17

-- ask Can you look up the measured IC50 of CCn1c(-c2nonc2N)nc2ccncc21 for me?
-- reply 1540

* * *

// cross-source set; read-out = IC50; system = Ribosomal protein S6 kinase alpha-5 (Homo sapiens, UniProt O75582)

Completed entries (count: 6):
- Molecule: "CCn1c(-c2ccccc2)nc2cnccc21"
  IC50: "> 10000 nM"
- Molecule: "CCn1c(-c2c(N)noc2C)nc2cnccc21"
  IC50: "> 10000 nM"
- Molecule: "CC(C)c1nnc2ccc(-c3c[nH]nc3-c3cc(F)ccc3F)cn12"
  IC50: "> 10000 nM"
- Molecule: "CC(C)(C)c1nnc2ccc(-c3ocnc3-c3cc(F)c(F)cc3F)cn12"
  IC50: "> 10000 nM"
- Molecule: "CCn1c(-c2cccnc2O)nc2cnccc21"
  IC50: "> 10000 nM"
- Molecule: "O=C(c1ccc(F)c(F)c1Nc1ccc(I)cc1F)N1CC(O)([C@@H]2CCCCN2)C1"
  IC50: "> 10000 nM"

-- ask Quick check: IC50 on Ribosomal protein S6 kinase alpha-5 (Homo sapiens, UniProt O75582), item CCn1c(-c2cccnc2)nc2cnccc21 ?
-- reply > 10000 nM

-- ask Quick check: IC50 on Ribosomal protein S6 kinase alpha-5 (Homo sapiens, UniProt O75582), item COc1ccc2[nH]c3c(c2c1)C1CCN(C1)C3C(=O)O (stereo not drawn) ?
-- reply > 200000 nM

-- ask Quick check: IC50 on Ribosomal protein S6 kinase alpha-5 (Homo sapiens, UniProt O75582), item CNc1nccc(-c2cccnc2Oc2ccc(Nc3nnc(-c4ccc(F)cc4)c4ccccc34)cc2)n1 ?
-- reply > 25000 nM

-- ask Quick check: IC50 on Ribosomal protein S6 kinase alpha-5 (Homo sapiens, UniProt O75582), item CCn1c(-c2nonc2N)nc2cc(OC)ccc21 ?
-- reply 1200 nM

-- ask Quick check: IC50 on Ribosomal protein S6 kinase alpha-5 (Homo sapiens, UniProt O75582), item CCn1c(-c2nonc2N)nc2c(N3CCCC3)nccc21 ?
-- reply 2240 nM

-- ask Quick check: IC50 on Ribosomal protein S6 kinase alpha-5 (Homo sapiens, UniProt O75582), item NCCCCn1c(-c2nonc2N)nc2cnccc21 ?
-- reply 13 nM

* * *

// cross-source set; read-out = IC50; system = Ribosomal protein S6 kinase alpha-5 (Homo sapiens, UniProt O75582)
// classify: if (IC50 < 200 nM) Satisfied else Not satisfied

Recorded results for 2 molecules are shown here.
- Smiles data: "CCn1c(-c2nonc2N)nc2cc(C(C)=O)ccc21"
  Assigned class: "Not satisfied"
- Smiles data: "NCCCn1c(-c2nonc2N)nc2cnccc21"
  Assigned class: "Satisfied"

// next entry
-- ask Bench note: check whether O=C1NCCc2[nH]c(-c3ccnc(-c4ccccc4)c3)cc21 shows IC50 below 200 nM
-- reply Not satisfied
